System: ACHN renal
ASSAY_PROTOCOL: NCI-60 one-dose screen, 48 h
CONDITIONS_USED: 10 µM unless noted
The panel holds about 83,000 compounds, 20% with a hit somewhere; the sample as a whole holds those more often. The source made the active and inactive calls. How the source made its calls: active means growth percent below 10; inactive means the rest.
Write down the outcome that applies. Available outcomes: 1.0 = active, 0.0 = inactive

Ask: Write down the call the test reported for this compound. Item: O=C(Nc1cc(Cl)ccc1O)c1ccccc1Nc1ccnc(C(F)(F)F)c1
Reply: 1.0

Ask: Give the logged outcome of this assay for the following compound: Cc1cccc(N2C(=O)/C(=C/C(Cl)=C/c3ccc([N+](=O)[O-])cc3)SC2=S)c1C
Reply: 1.0

Ask: Could you check what this test reported for COc1ccc(N=C2NN=C(c3c[nH]c4ccccc34)CS2)cc1OC ?
Reply: 0.0

Ask: Each compound tested received a call. Report the one for O=C(Nc1ccc(Nc2ccncc2)cc1)c1ccc(Nc2ccnc3ccc([N+](=O)[O-])cc23)cc1 .
Reply: 0.0

Ask: // outcome(item) with item = CCOC(=O)c1c(C)nc2ccccc2c1/C=C/c1ccc(F)cc1
Reply: 0.0

---

System: MDA-MB-435 melanoma
ASSAY_PROTOCOL: NCI-60 one-dose screen, 48 h (100 = growth as untreated, 0 = no growth, -100 = all killed)
CONDITIONS_USED: 10 µM unless noted
Compounds without any hit were thinned out: in the full panel of roughly 83,000, 20% have a hit.
QUANTITY_NAME: growth (%)
Output spec: scalar in %, unitless text.

The observed growth for C/C(=C(\c1ccc(OCCN2CCCCCC2)cc1)c1ccc(OC(=O)c2ccccc2)cc1)c1ccc(Cl)cc1 when tested with MDA-MB-435 melanoma stands at 56

The compound O=C1/C(=C/c2ccc(Cl)cc2)CN(C(=O)C(Cl)Cl)C/C1=C\c1ccc(Cl)cc1 , tested on MDA-MB-435 melanoma, showed growth of -95.3

Per the reported MDA-MB-435 melanoma data, COC12C=C/C(=C(/C(=O)OCc3csc(SC)n3)C(=O)CCCCCCCCC3(OC)C=C/C(=C(/C(=O)OCc4cnc(SC)s4)C(=O)CCCCCCCC1)O3)O2 (centres undefined) has growth of 10

I looked up Fc1cccc(CNc2c3ccccc3nc3ccccc23)c1 and its growth for MDA-MB-435 melanoma was 48.9

---

Tested on: OVCAR-5 ovarian
ASSAY_PROTOCOL: NCI-60 one-dose screen, 48 h
CONDITIONS_USED: 10 µM unless noted
This is part of a sample that, as a whole, favours compounds with a hit. Of some 83,000 tested, about 20% had one in any assay. Calls of active or inactive are those of the source. How the source made its calls: active means growth percent below 10; inactive means the rest.
Please state which outcome applies, choosing from TRUE for active, FALSE for inactive

Ask: Field: outcome | Entry: c1cc(OCCCCCOc2cccc(-c3nc4ccccc4[nH]3)c2)cc(-c2nc3ccccc3[nH]2)c1
Reply: TRUE

Ask: Recorded call for CC[C@H](Nc1nc(N)nc(C)c1C#N)c1nc2cccc(CN(C)c3ncc(C(=O)NO)cn3)c2c(=O)n1-c1ccccc1 ?
Reply: TRUE

Ask: Please indicate how the test categorized O=C(/C=C/C12c3ccccc3C(c3ccccc31)C1C(=O)NC(=O)C12)c1ccco1 (stereo not drawn) .
Reply: FALSE

Ask: What did the test return for CC(C)C1C2=C(NCCN1C(=O)c1ccncc1)C(C)(C)N(Cc1ccccc1)C2=O (stereo not drawn) ?
Reply: FALSE

Ask: Which outcome was entered for the molecule COc1ccc(C(O)c2cc3c(N)c(C(=O)Nc4cccc5ccccc45)sc3nc2C)cc1 (stereo not drawn) in this test?
Reply: FALSE

Ask: Outcome logged for N#Cc1c(-c2ccccc2)nc2c(c(-c3ccc(Cl)cc3)nn2-c2ccccc2)c1-c1ccc([N+](=O)[O-])cc1 in this assay:
Reply: FALSE

Ask: Can you look up the reported call for Cc1[nH]n(-c2cccc(Cl)c2)c(=O)c1/C=C1\C=c2ccccc2=CC1=O for me?
Reply: FALSE

Ask: Which outcome was entered for the molecule CNC(=O)c1cc(Oc2ccc3c(c2)sc2nc(-c4ccc(NC(=O)[C@@H](NC(=O)OC)C(C)C)cc4)cn23)ccn1 in this test?
Reply: FALSE

Ask: Identify the outcome logged in this assay for the molecule shown: N#Cc1c(-c2cccc(Cl)c2)cc(-c2cccnc2)[nH]c1=O
Reply: FALSE

Ask: For C(=C(\C1=NCCN1)n1ccc2ccccc21)/c1ccccc1 , what call appears in the results of this test?
Reply: FALSE

Ask: Recorded test outcome, item COC1/C=C/OC2(C)Oc3c(C)c(O)c4c(O)c(c(/C=N/N(c5ccccc5)c5ccccc5)c(O)c4c3C2=O)NC(=O)C(C)=C/C=C/C(C)C(O)C(C)C(O)C(C)C(OC(C)=O)C1C (stereo not drawn)
Reply: FALSE

Ask: Look up the recorded call for COc1ccc(/C=C/C(c2cc(OC)c(OC)c(OC)c2)n2cncn2)cc1O (stereo not drawn) in this test.
Reply: FALSE

Ask: Short answer needed: outcome of this test for ClC(Cl)c1nc(-c2ccccc2)n2nc(-c3ccccc3)cc2n1 ?
Reply: TRUE

Ask: Outcome? COC(=O)c1ccc2c(c1)c1c(C)c3cnccc3c(C)c1n2C
Reply: TRUE

Ask: Recorded test call requested for CCOC(=O)C/C(=N\Nc1cc(=O)[nH]c2ccc(OC)cc12)C(=O)OCC
Reply: FALSE

Ask: Each molecule tested received a call. Report the one for COC(=O)c1c2c(c(C)[n+]([O-])c1C)C(=O)C(NCc1ccccc1)=CC2=O .
Reply: FALSE

Ask: Which outcome was assigned to CC1=C2[C@@H](CC1)[C@]1(C)O[C@@](C3CCNCC3)(C[C@H]1OC(=O)CO)[C@H]2OC(=O)/C=C/c1ccccc1 in this test?
Reply: FALSE

Ask: Short answer needed: outcome of this test for Cc1cc(O)cc(-c2nn(C)cc2-c2cc(N3CCOCC3)nc(-c3cccnc3)n2)c1 ?
Reply: FALSE

---

Test system: IGROV1 ovarian
ASSAY_PROTOCOL: NCI-60 one-dose screen, 48 h (100 = growth as untreated, 0 = no growth, -100 = all killed)
CONDITIONS_USED: 10 µM unless noted
Experimental: Growth inhibition of the IGROV1 human tumor cell line is measured as a screen for anti-cancer activity. Cells are grown in 96 well plates and exposed to the test compound for 48 hours. Compounds are tested at a single concentration, which is 10^-5 M for most compounds. The reported endpoint is percent growth (GI% or GIPRCNT), where numbers from 0 - 100% represent growth inhibition, and numbers from -100% - 0 represent cell death. For example, a value of 40 represents 60% growth inhibition. […]
The panel holds about 83,000 compounds, 20% with a hit somewhere; the sample as a whole holds those more often.
Hi there, I'd appreciate the recorded growth for every entry that follows.
Report as a plain number; the unit % is understood.

Summary for this compound, c1ccc(-c2ccc3c(c2)C2(CCNCC2)CN3)cc1 : growth is 73

# growth (compound: NCCCNc1nc2ccccc2c2c(=O)c3cc(Cl)ccc3sc12 ) is -1.46

# growth (compound: N#Cc1ccc(O)c(C2=NCC(c3ccc(-c4ccccc4)cc3)O2)c1 (stereo unspecified) ) is 13.7

S=c1ccnc[nH]1 has a reported growth of 110

According to the records, this compound C=CCn1cc(-c2nc3ccccc3s2)c2cc(-c3ccc4c5c(cccc35)C(=O)N(CCO)C4=O)ccc21 displays growth of 77.7

So, Cc1ccc(S(=O)(=O)N2CCCN(c3nc(-c4ccccc4)nc4nc(-c5ccccc5)oc34)CC2)cc1 ? Its growth was 90.2

Notebook: COc1cc(/C=C/c2cc(/C=C/c3ccc(O)c(OC)c3)n(C(=O)Nc3ccc(Cl)cc3)n2)ccc1O , growth read as 9.93

Briefly, growth measured for Nc1cc(C(=O)O)cc(-n2c(O)c(C=C3N=c4ccccc4=N3)sc2=S)c1 : 86.8

Lab note: measured growth of COCCn1cc(-c2nc(-c3cc4cccnc4n3C)cs2)c2ccccc21 was 43.7

get_value(item= OC1(c2ccccc2)c2ccccc2N(c2ccccc2)c2ccc(Cl)cc21 (stereo unspecified) , readout=growth) returns -94.5

The compound identified as CN(C)CCCn1c2c(c3ccncc3c1=O)C(=O)c1ccccc1-2 registered its growth at 0.297

Kindly note the recorded growth for CCOC(=O)/C=C1\S/C(=N\Nc2cc(=O)[nH]c3ccc(Br)cc23)N(c2ccccc2)C1=O , which is 58.7

growth reading for C=C1C(=O)O[C@H]2[C@H]1CC/C(CNC(=O)Cc1c[nH]c3ccccc13)=C\CC[C@@]1(C)O[C@@H]21 : 27.7

The reported value for Ic1ccc(Nc2nc3nonc3nc2Nc2ccc(I)cc2)cc1 in terms of growth is 28.5

Per the record, CC1(C)CC[C@]23CC[C@]4(C)[C@H](CC[C@@H]5[C@@]6(C)CCNCC(C)(C)[C@@H]6CC[C@]54C)[C@H]2[C@H]1OC3 has growth of 107

The recorded growth for COc1ccc(-c2nc3c(c(-c4ccc(Cl)cc4)nn3-c3ccccc3)c(-c3ccccc3)c2C#N)cc1 is 111

Entry under test: CN(C)CCC(CCN(C)C)(C(=O)O)c1ccccc1 . Its growth was 93.7

Sure, the documented growth for Nc1nc(N(Cc2ccccc2)c2ccccc2)c2cn[nH]c2n1 is 80.7

response.value for CC(=O)c1sc(-c2ccc(F)cc2)cc1O (field: growth) = 115

So, Cn1c(=O)[nH]c(=O)c2nc3c(nc21)-c1ccccc1C3=O ? Its growth was 108

Value of growth reported for the compound N=C(N)c1ccc(-c2ccc(-c3ccccc3)o2)o1 is 45.3

Notebook: COc1cc2c(c(OC)c1OC)CCC(c1cccc(C(=O)Nc3ccc(Br)cc3)c1)O2 (stereo unspecified) , growth read as 61.2

Form field growth, entry O=C(c1c[nH]c2ccccc12)c1n[nH]c(=S)n1-c1ccc([N+](=O)[O-])cc1 : 73.1

GET /value?item= CC(O)CNC(Cc1ccccc1)c1ccc2c(c1)OCO2 (stereo unspecified) &field=growth returns 101

Cc1oc(-c2ccc(Cl)cc2)nc1C1=NN(C(=O)c2ccncc2)C(c2ccccc2)C1 (stereo unspecified) has a reported growth of 71.3

Measured growth of C/C(=C(\c1ccc(OCCN2CCCCCC2)cc1)c1ccc(OC(=O)c2ccccc2)cc1)c1ccc(Cl)cc1 : 46.7

Short answer for Oc1nc(NCc2ccccc2)sc1/C=C1\C=Nc2ncccc21 : growth was 67.2

For CCCC(O)Cn1ncc(C(=O)OCC)c1NC(=O)NCc1cccc(C(F)(F)F)c1 (stereo unspecified) the compound record lists growth as 83.8

Consider COCC(=O)Oc1cc(-c2ccc(C)cc2C)c(OC(=O)COC)c(-c2ccc(C)cc2C)c1 . Its measured growth is 50.1

Measured growth, CC1=C(Cl)C(=O)c2cc(C)ccc2C1=O : 103

growth recorded for this compound, O=c1oc2c(cnc3ccccc32)cc1-c1cccc(Cl)c1 , is 106

Lab book: growth of CNCC[C@H](Oc1cccc2ccccc12)c1cccs1 noted as 84.7

Given item O=C(c1ccc(Br)cc1)C(Br)C(c1ccc(Cl)cc1)C(c1ccccc1)[N+](=O)[O-] (stereo unspecified) , the value recorded as its growth is 108

Lab note: measured growth of COc1ccc(/C=N/NC(=O)Cn2c(-c3ccc(S(C)(=O)=O)cc3)nc3ccccc32)cc1 was 91.4

// growth lookup, compound = CN(C)Cc1ccc(NC(=O)c2cncc(C#Cc3cnc(N)c4ncccc34)c2)cc1C(F)(F)F , result: 70.8

Kindly note the recorded growth for O=[N+]([O-])c1ccccc1Nc1ccc2ccccc2c1 , which is 87

For this compound ( O=C(C1=Cc2cc3ccccc3n2Cc2cnnn21)c1ccc(F)cc1 ), measured growth is 90

The recorded growth for entry c1ccc(-c2nc3ccccc3[nH]2)c(OCCCCCOc2ccccc2-c2nc3ccccc3[nH]2)c1 equals 70

Entry COc1ccc(C2[C@@H](Cl)C(=O)N2c2cc(OC)c(OC)c(OC)c2)cc1Cl (stereo partly specified) , growth reported as 33.5

Item: c1ccc(-c2c(-c3ccccc3)[n+](Cc3ccc4ccccc4c3)cn2Cc2ccc3ccccc3c2)cc1 | growth: -73.8

growth reported for this compound CCOc1ncc([N+](=O)[O-])c(OCC)n1 : 107
